- tested.system: PRMT5-MEP50 enzyme complex (Homo sapiens (Human), UniProt O14744)
- Sequence (O14744 2-637): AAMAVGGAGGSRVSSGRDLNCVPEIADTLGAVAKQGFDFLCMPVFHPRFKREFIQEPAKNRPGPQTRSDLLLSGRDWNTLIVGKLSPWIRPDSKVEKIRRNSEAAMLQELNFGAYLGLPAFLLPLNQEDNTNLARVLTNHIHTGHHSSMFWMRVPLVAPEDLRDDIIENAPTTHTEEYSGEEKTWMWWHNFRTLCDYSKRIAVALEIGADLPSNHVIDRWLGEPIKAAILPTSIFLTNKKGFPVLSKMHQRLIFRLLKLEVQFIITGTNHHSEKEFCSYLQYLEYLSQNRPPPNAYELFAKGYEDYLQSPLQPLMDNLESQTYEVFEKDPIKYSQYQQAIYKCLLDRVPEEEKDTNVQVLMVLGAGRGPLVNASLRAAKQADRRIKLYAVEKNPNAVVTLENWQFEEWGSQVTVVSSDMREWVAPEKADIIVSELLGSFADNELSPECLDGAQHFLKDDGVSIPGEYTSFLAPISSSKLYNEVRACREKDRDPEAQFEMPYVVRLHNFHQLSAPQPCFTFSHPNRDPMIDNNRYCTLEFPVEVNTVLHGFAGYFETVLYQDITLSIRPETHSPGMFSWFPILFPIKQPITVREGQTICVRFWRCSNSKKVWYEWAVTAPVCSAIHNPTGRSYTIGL
- Sequence (Q9BQA1 2-342 partner): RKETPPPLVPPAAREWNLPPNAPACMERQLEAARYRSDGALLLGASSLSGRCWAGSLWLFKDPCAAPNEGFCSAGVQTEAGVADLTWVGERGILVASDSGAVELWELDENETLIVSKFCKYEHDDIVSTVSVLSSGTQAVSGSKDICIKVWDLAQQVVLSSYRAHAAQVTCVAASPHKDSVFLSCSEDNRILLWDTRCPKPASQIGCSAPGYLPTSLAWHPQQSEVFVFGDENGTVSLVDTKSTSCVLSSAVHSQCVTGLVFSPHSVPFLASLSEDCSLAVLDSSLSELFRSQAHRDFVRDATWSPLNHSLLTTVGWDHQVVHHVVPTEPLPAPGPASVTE
- test.method.notes: PRMT5 enzyme activity in vitro assay (methylation of histone H4R3, ELISA absorbance at 450 nm)
- study.conditions: SAM, histone H4 peptide, room temperature 2 hours, 8 points from 10 μM to 0.128 nM
pIC50: −log10 of the molar value. Counter-ions that a name gives are not always drawn.
readout.kind: pIC50

Some compounds with recorded pIC50:
compound: O=C1c2ccc(OS(=O)(=O)C(F)(F)F)cc2CCCN1C[C@H](O)CN1CCc2ccccc2C1
pIC50: 6.00 to 7.00
--
compound: CN1CCN(C(=O)c2ccc3c(c2)OCCN(C[C@H](O)CN2CCc4ccccc4C2)C3=O)CC1
pIC50: 6.00 to 7.00
--
compound: CN(C1CCC(Oc2ccc3c(c2)OCCN(C[C@H](O)CN2CCc4ccccc4C2)C3=O)CC1)C1COC1 (stereo partly shown)
pIC50: 7.00 to 9.00
--
compound: O=C1c2ccc(OCC(F)(F)F)cc2OCCN1C[C@H](O)CN1CCc2ccccc2C1
pIC50: 6.00 to 7.00
--
compound: O=C1c2ccccc2OCCN1CC(O)CN1CCc2ccccc2C1 (stereo not shown)
pIC50: 6.00 to 7.00
--
compound: O=C1c2ccc(OC3CCN(C4COC4)CC3)cc2OCCN1C[C@H](O)CN1CCc2ccccc2C1
pIC50: 6.00 to 7.00

Given the entry C[C@@H]1CN(C[C@H](O)CN2CCc3ccccc3C2)C(=O)c2ccc(OC3CCN(CCO)C[C@H]3F)cc2O1 (stereo partly shown) [Example 255, dihydrochloride] , report its measured pIC50.
6.00 to 7.00

Given the entry CC(C)N1CC=C(c2ccc3c(c2)OCCN(C[C@H](O)CN2CCc4ccccc4C2)C3=O)CC1 , report its measured pIC50.
6.00 to 7.00

Given the entry CCN(CC)C(=O)COc1ccc2c(c1)OCCN(C[C@H](O)CN1CCc3ccccc3C1)C2=O , report its measured pIC50.
6.00 to 7.00

Given the entry C[C@@H]1CN(C[C@H](O)CN2CCc3ccccc3C2)C(=O)c2ccc(OC3CCN(CCO)CC3)cc2O1 [Example 261, di hydrochloride] , report its measured pIC50.
6.00 to 7.00

Given the entry O=C1c2ccc(OCC3CCCCC3)cc2OCCN1C[C@H](O)CN1CCc2ccccc2C1 , report its measured pIC50.
6.00 to 7.00

Given the entry O=C1c2ccc(C(F)(F)F)cc2OCCN1C[C@H](O)CN1CCc2ccccc2C1 , report its measured pIC50.
6.00 to 7.00

Given the entry O=C1c2ccc(CN3CC4(COC4)C3)cc2OCCN1C[C@H](O)CN1CCc2ccccc2C1 , report its measured pIC50.
7.00 to 9.00

Entry source: patent US11111237B2
